Parameter: TGI. Scope: all listed entries.
system: MDA-MB-231 breast; test: NCI tumour cell line growth inhibition, 48 h

Guide cases for TGI, answers given:
Task item: Give recorded TGI. COc1ccccc1C(=O)N(Cc1ccccc1)c1ccc(Cl)c(C(=O)OC(C)C)c1
Reply: > 100 µM

Task item: Give recorded TGI. CSC1=Nc2c(c(C)c(-c3ccccc3)n2COC(CO)CO)C2=NC(=O)CC(C)N12 (stereo not drawn)
Reply: > 100 µM

Task item: Give recorded TGI. COc1ccc2nc3ccc(OC)cc3c(SCCCl)c2c1
Reply: 99.3 µM

Task item: Give recorded TGI. COc1ccc(C(O)c2cc3c(N)c(C(=O)Nc4cccc(Br)c4C)sc3nc2C)cc1 (stereo not drawn)
Reply: 8.96 µM

Task item: Give recorded TGI. Cc1cc(S(N)(=O)=O)c(S/C(=N\NS(=O)(=O)c2ccccc2)c2ccc(Cl)cc2)cc1Cl
Reply: > 100 µM

Task item: Give recorded TGI. CC(C)(C)OC(=O)CCCCCNC(=O)CCCCCNC(=O)CCC(CN(CC(=O)OCc1ccccc1)CC(=O)OCc1ccccc1)N(CC(=O)OCc1ccccc1)CC(=O)OCc1ccccc1 (stereo not drawn)
Reply: > 100 µM

More entries:
Task item: Give recorded TGI. CC1OC(OC2C(O)C(O)C(O)C(O)C2O)C(N)CC1N=C(N)C(=O)O (stereo not drawn)
Reply: > 100 µM

Task item: Give recorded TGI. C[As](C)SC1OCC(O)C(O)C1O (stereo not drawn)
Reply: 0.63 µM

Task item: Give recorded TGI. CC(C)[Si]1(C(C)C)OCC2OC(n3ccc(=O)[nH]c3=O)C([Se]c3ccccc3)C2O[Si](C(C)C)(C(C)C)O1 (stereo not drawn)
Reply: 7.79 µM

---

tested on: EKVX NSCLC; test: NCI tumour cell line growth inhibition, 48 h
Parameter: TGI. Scope: all listed entries.

Guide cases for TGI, answers given:
Task item: Give recorded TGI. C[C@@H]1CC[C@H]2[C@H](C)C(OC3O[C@@H]4O[C@@]5(C)CC[C@H]6[C@H](C)CC[C@@H]([C@@H]3C)[C@@]46O5)O[C@@H]3O[C@@]4(C)CC[C@@H]1[C@]32O4 (some centres undefined)
Reply: > 100 µM

Task item: Give recorded TGI. CC(C)[C@H]1NC(=O)[C@H]2N=C(S[C@H]2C)[C@@H]2CCCN2C(=O)[C@H](Cc2ccccc2)NC(=O)[C@@H]2CSC(=N2)[C@@H](Cc2ccccc2)NC(=O)[C@@H]2CSC1=N2
Reply: > 50 µM

Task item: Give recorded TGI. Oc1ccccc1C=Nc1ccc(-c2nc3ccccc3s2)cc1
Reply: 85.2 µM

Task item: Give recorded TGI. O=C1OC(=O)C([Se]c2ccccc2)=C1[Se]c1ccccc1
Reply: > 100 µM

Task item: Give recorded TGI. COc1cc2c(c(OC)c1OC)C(=O)NCCC2
Reply: > 100 µM

More entries:
Task item: Give recorded TGI. O=[N+]([O-])/C=C/c1ccc(Cl)cc1[N+](=O)[O-]
Reply: 35.1 µM

Task item: Give recorded TGI. C[C@@H]1CCc2ncc(F)cc2[C@H]2CCCN2c2ccn3ncc(c3n2)C(=O)N1
Reply: > 100 µM

Task item: Give recorded TGI. COc1ccccc1N/C(SCc1ccccc1)=C(/C(Cl)=C(Cl)Cl)[N+](=O)[O-]
Reply: > 100 µM

Task item: Give recorded TGI. CC(=O)/C(=C\I)c1ccccc1
Reply: 33.3 µM

---

system: HCT-15 colon; assay: NCI tumour cell line growth inhibition, 48 h; in the data active = GI50 below about 0.43 µM; inactive = the rest
Please reply with one of these outcomes: active, inactive

Look over these answered cases.
Task item: // param item: C=C1C[C@@H]2O[C@H]3[C@H]4[C@@H](CC[C@@](C)(OC(=O)CCC)[C@H]42)[C@@H](C)C(=O)O[C@@]3(C)CC[C@H]1OO ; yields the recorded call
Reply: inactive

Task item: // param item: CCCCCC[C@H]1C(=O)O[C@H](C)[C@H](NC(=O)c2cccc(NC=O)c2OC)C(=O)O[C@@H](C)[C@@H]1OC(=O)CCC (tested in a mixture with another compound) ; yields the recorded call
Reply: inactive

Task item: // param item: CC(O)[C@H](NC(=O)N[C@@H](CC(N)=O)c1nc(N2CCNCC2)no1)C(=O)O (stereo partly drawn) ; yields the recorded call
Reply: inactive

More entries:
Task item: // param item: COc1ccc(/C=C/C(=O)c2cc3c(N)c(C(=O)Nc4ccc(OC)cc4)sc3nc2C)cc1 ; yields the recorded call
Reply: active

Task item: // param item: CC1(C)N=C(N)N=C(N)N1c1cccc(CCc2ccccc2)c1 ; yields the recorded call
Reply: inactive

Task item: // param item: COc1ccc(C2=Nn3c(nnc3-n3nc(C)cc3C)SC2)cc1 ; yields the recorded call
Reply: active

Task item: // param item: COc1cc(NC2CCCCC2O)c2nc(-c3ccc(Cl)cc3)ccc2c1 (stereo not drawn) ; yields the recorded call
Reply: inactive

Task item: // param item: C=CC(=O)Nc1cc2c(Nc3ccc(F)c(Cl)c3)ncnc2cc1C#CC(C)(C)N1CCN(C)CC1 ; yields the recorded call
Reply: inactive

---

Parameter: GI50. Scope: all listed entries.
system: SK-MEL-5 melanoma; experiment: NCI tumour cell line growth inhibition, 48 h

Guide cases for GI50, answers given:
Task item: Give recorded GI50. COc1cc(/C=C2\SC(N3CCCCC3)=NC2=O)ccc1OCCCCCCOc1ccc(/C=C2\SC(N3CCCCC3)=NC2=O)cc1OC
Reply: 9.35 µM

Task item: Give recorded GI50. C#C[C@]1(O)CC[C@H]2[C@@H]3CC=C4c5nc(N)sc5CC[C@]4(C)[C@H]3CC[C@@]21C
Reply: 1.91 µM

Task item: Give recorded GI50. O=[N+]([O-])/C=C/c1ccc(Cl)cc1[N+](=O)[O-]
Reply: 8.47 µM

More entries:
Task item: Give recorded GI50. C=C1C[C@@H]2O[C@H]3[C@H]4[C@@H](CC[C@@](C)(OC(=O)CCC)[C@H]42)[C@@H](C)C(=O)O[C@@]3(C)CC[C@H]1OO
Reply: 17.8 µM

Task item: Give recorded GI50. C[As](C)SC1OCC(O)C(O)C1O (stereo not given)
Reply: 0.166 µM

---

tested on: CCRF-CEM leukemia; experiment: NCI tumour cell line growth inhibition, 48 h
Parameter: TGI. Scope: all listed entries.

Guide cases for TGI, answers given:
Task item: Give recorded TGI. CSC1=Nc2c(c(C)c(-c3ccccc3)n2COC(CO)CO)C2=NC(=O)CC(C)N12 (centres undefined)
Reply: > 100 µM

Task item: Give recorded TGI. CC(=O)OCC1OC(n2c3c(cc(C#N)c2=S)CCCC3)C(OC(C)=O)C(OC(C)=O)C1OC(C)=O (centres undefined)
Reply: > 100 µM

Task item: Give recorded TGI. O=C1OC([C@H](O)c2cccnc2)c2ccccc21 (some centres undefined)
Reply: > 10 µM

Task item: Give recorded TGI. COc1cc2cc(Oc3cccc(NC(=O)Nc4cc(C(F)(F)F)cc(C(F)(F)F)c4)c3)c(C)nc2cc1OC
Reply: 3.47 µM

Task item: Give recorded TGI. CC(=O)N1C(Nc2nccs2)CCN1c1ccccc1 (centres undefined)
Reply: > 10 µM

More entries:
Task item: Give recorded TGI. CC(=O)c1ccc(Nc2c3ccccc3nc3occc23)cc1
Reply: 4.46 µM

Task item: Give recorded TGI. CC(C)OP(=O)(OC(C)C)C(C)(C)O
Reply: > 100 µM

Task item: Give recorded TGI. O=C(/C=C/c1ccccc1O)c1ccccc1Cl
Reply: 88.5 µM

Task item: Give recorded TGI. COc1ccc(/C=N/NS(=O)(=O)c2ccccc2)cc1
Reply: > 100 µM

Task item: Give recorded TGI. COC(=O)[C@@](NC(=O)OCc1ccccc1)([C@H](C)O)C(F)(F)F
Reply: > 100 µM

Task item: Give recorded TGI. CN=c1sc2nc(C#N)c(C#N)nc2n1C
Reply: > 100 µM

Task item: Give recorded TGI. C#C[C@]1(O)CC[C@H]2[C@@H]3CC=C4c5nc(N)sc5CC[C@]4(C)[C@H]3CC[C@@]21C
Reply: 14.9 µM

Task item: Give recorded TGI. COc1ccc(-c2nc(Nc3ccccc3)sc2Cc2sc(Nc3ccccc3)nc2-c2ccc(OC)cc2)cc1
Reply: > 100 µM

---

tested on: HCT-15 colon; experiment: NCI tumour cell line growth inhibition, 48 h
value type: GI50

Task item: Give recorded GI50. COc1ccc(C(O)c2cc3c(N)c(C(=O)Nc4cccc(Br)c4C)sc3nc2C)cc1 (configuration not stated)
Reply: 138 nM

Task item: Give recorded GI50. CC(C)OP(=O)(O)c1ncc(-c2ccc(C(F)(F)F)cc2)c(NC2CCCCCC2)n1
Reply: > 100000 nM

Task item: Give recorded GI50. Cc1ccc(C2CC(c3ccc(Nc4ccnc5cc(Cl)ccc45)cc3)=NN2C=O)cc1 (configuration not stated)
Reply: 2780 nM
